Tested on: Pseudomonas aeruginosa
assay procedure: Antibacterial activity against Pseudomonas aeruginosa ATCC 27853 after 18 to 24 hrs by CLSI M100-S11 method
Type: functional
Under this convention, T denotes MIC strictly below 20 µg/mL and F denotes MIC at or above 20 µg/mL.

molecule	group label
CO/N=C1\CN(c2nc3c(cc2F)c(=O)c(C(=O)O)cn3-c2nc(N)c(F)cc2F)[C@H]1CN	T
NC[C@@H]1/C(=N/OCc2ccccc2)CN1c1nc2c(cc1F)c(=O)c(C(=O)O)cn2-c1nc(N)c(F)cc1F	F
NCC1CN(c2nc3c(cc2F)c(=O)c(C(=O)O)cn3-c2nc(N)c(F)cc2F)C/C1=N\OCc1ccccc1 (stereo unspecified)	T
CO/N=C1\CN(c2nc3c(cc2F)c(=O)c(C(=O)O)cn3-c2nc(N)c(F)cc2F)[C@@H]1CN	F
Nc1nc(-n2cc(C(=O)O)c(=O)c3cc(F)c(N4CC/C(=N\OCc5ccccc5)C(O)C4)nc32)c(F)cc1F (stereo unspecified)	F
CO/N=C1\CCN(c2nc3c(cc2F)c(=O)c(C(=O)O)cn3-c2nc(N)c(F)cc2F)CC1N (stereo unspecified)	F
NC[C@H]1/C(=N/OCc2ccccc2)CN1c1nc2c(cc1F)c(=O)c(C(=O)O)cn2-c1nc(N)c(F)cc1F	F
CC1(CN)CN(c2nc3c(cc2F)c(=O)c(C(=O)O)cn3-c2nc(N)c(F)cc2F)C/C1=N\OCc1ccccc1 (stereo unspecified)	F
CO/N=C1\CN(c2c(F)cc3c(=O)c(C(=O)O)cn(-c4nc(N)c(F)cc4F)c3c2Cl)CC1CN (stereo unspecified)	T
CCO/N=C1\CN(c2nc3c(cc2F)c(=O)c(C(=O)O)cn3-c2nc(N)c(F)cc2F)[C@@H]1CN	F
CCO/N=C1\CN(c2nc3c(cc2F)c(=O)c(C(=O)O)cn3-c2nc(N)c(F)cc2F)[C@H]1CN	T
CCO/N=C1\CN(c2nc3c(cc2F)c(=O)c(C(=O)O)cn3-c2nc(N)c(F)cc2F)CC1CN (stereo unspecified)	T
CO/N=C1\CCN(c2nc3c(cc2F)c(=O)c(C(=O)O)cn3-c2nc(N)c(F)cc2F)CC1O (stereo unspecified)	F
CO/N=C1\CCN(c2c(F)cc3c(=O)c(C(=O)O)cn(-c4nc(N)c(F)cc4F)c3c2Cl)CC1N (stereo unspecified)	T
CO/N=C1\CN(c2nc3c(cc2F)c(=O)c(C(=O)O)cn3-c2nc(N)c(F)cc2F)CC1CN (stereo unspecified)	T
Nc1nc(-n2cc(C(=O)O)c(=O)c3cc(F)c(N4CC/C(=N\OCc5ccccc5)C(N)C4)nc32)c(F)cc1F (stereo unspecified)	F

====

System: Enterococcus faecalis
assay procedure: Antibacterial activity against Enterococcus faecalis 14-3 after 18 to 24 hrs by CLSI M100-S11 method
Assay type: functional

compound	tested system	MIC
NCC1CN(c2nc3c(cc2F)c(=O)c(C(=O)O)cn3-c2nc(N)c(F)cc2F)C/C1=N\OCc1ccccc1 (stereo not drawn)	Enterococcus faecalis	16 µg/mL
CCO/N=C1\CN(c2nc3c(cc2F)c(=O)c(C(=O)O)cn3-c2nc(N)c(F)cc2F)[C@H]1CN	Enterococcus faecalis	> 128 µg/mL
CO/N=C1\CN(c2nc3c(cc2F)c(=O)c(C(=O)O)cn3-c2nc(N)c(F)cc2F)CC1CN (stereo not drawn)	Enterococcus faecalis	32 µg/mL
CO/N=C1\CN(c2c(F)cc3c(=O)c(C(=O)O)cn(-c4nc(N)c(F)cc4F)c3c2Cl)CC1CN (stereo not drawn)	Enterococcus faecalis	32 µg/mL
NC[C@@H]1/C(=N/OCc2ccccc2)CN1c1nc2c(cc1F)c(=O)c(C(=O)O)cn2-c1nc(N)c(F)cc1F	Enterococcus faecalis	> 128 µg/mL
CO/N=C1\CCN(c2c(F)cc3c(=O)c(C(=O)O)cn(-c4nc(N)c(F)cc4F)c3c2Cl)CC1N (stereo not drawn)	Enterococcus faecalis	> 128 µg/mL
CO/N=C1\CCN(c2nc3c(cc2F)c(=O)c(C(=O)O)cn3-c2nc(N)c(F)cc2F)CC1O (stereo not drawn)	Enterococcus faecalis	> 128 µg/mL
Nc1nc(-n2cc(C(=O)O)c(=O)c3cc(F)c(N4CC/C(=N\OCc5ccccc5)C(N)C4)nc32)c(F)cc1F (stereo not drawn)	Enterococcus faecalis	> 128 µg/mL

====

Test system: Escherichia coli
assay procedure: Antibacterial activity against Escherichia coli ATCC 25922 after 18 to 24 hrs by CLSI M100-S11 method
Type: functional
Under this convention, true denotes MIC strictly below 2 mg/L and false denotes MIC at or above 2 mg/L.

compound	group label
NCC1CN(c2nc3c(cc2F)c(=O)c(C(=O)O)cn3-c2nc(N)c(F)cc2F)C/C1=N\OCc1ccccc1 (stereo not drawn)	true
CO/N=C1\CCN(c2c(F)cc3c(=O)c(C(=O)O)cn(-c4nc(N)c(F)cc4F)c3c2Cl)CC1N (stereo not drawn)	true
CCO/N=C1\CN(c2nc3c(cc2F)c(=O)c(C(=O)O)cn3-c2nc(N)c(F)cc2F)CC1CN (stereo not drawn)	true
CO/N=C1\CN(c2nc3c(cc2F)c(=O)c(C(=O)O)cn3-c2nc(N)c(F)cc2F)[C@@H]1CN	false
NC[C@@H]1/C(=N/OCc2ccccc2)CN1c1nc2c(cc1F)c(=O)c(C(=O)O)cn2-c1nc(N)c(F)cc1F	false
CO/N=C1\CN(c2c(F)cc3c(=O)c(C(=O)O)cn(-c4nc(N)c(F)cc4F)c3c2Cl)CC1CN (stereo not drawn)	true
CO/N=C1\CCN(c2nc3c(cc2F)c(=O)c(C(=O)O)cn3-c2nc(N)c(F)cc2F)CC1N (stereo not drawn)	false

====

Test system: Staphylococcus epidermidis
assay procedure: Antibacterial activity against methicillin-resistant Staphylococcus epidermidis 14-37 after 18 to 24 hrs by CLSI M100-S11 method
Format: functional
// MIC lookup, one value per entry

compound	MIC
CO/N=C1\CN(c2nc3c(cc2F)c(=O)c(C(=O)O)cn3-c2nc(N)c(F)cc2F)[C@@H]1CN	> 128 µg/mL
CCO/N=C1\CN(c2nc3c(cc2F)c(=O)c(C(=O)O)cn3-c2nc(N)c(F)cc2F)[C@H]1CN	> 128 µg/mL
CCO/N=C1\CN(c2nc3c(cc2F)c(=O)c(C(=O)O)cn3-c2nc(N)c(F)cc2F)CC1CN (configuration not stated)	64 µg/mL
C[C@H]1COc2c(N3CCN(C)CC3)c(F)cc3c(=O)c(C(=O)O)cn1c23.C[C@H]1COc2c(N3CCN(C)CC3)c(F)cc3c(=O)c(C(=O)O)cn1c23.O [LEVOFLOXACIN]	64 µg/mL
Nc1nc(-n2cc(C(=O)O)c(=O)c3cc(F)c(N4CC/C(=N\OCc5ccccc5)C(N)C4)nc32)c(F)cc1F (configuration not stated)	> 128 µg/mL
CO/N=C1\CCN(c2nc3c(cc2F)c(=O)c(C(=O)O)cn3-c2nc(N)c(F)cc2F)CC1O (configuration not stated)	> 128 µg/mL
CC1(CN)CN(c2nc3c(cc2F)c(=O)c(C(=O)O)cn3-c2nc(N)c(F)cc2F)C/C1=N\OCc1ccccc1 (configuration not stated)	> 128 µg/mL

====

Tested on: Staphylococcus aureus
assay procedure: Antibacterial activity against Staphylococcus aureus CMCC 26003 after 18 to 24 hrs by CLSI M100-S11 method
Format: functional
// MIC lookup, one value per entry
measurement label: MIC (µg/mL)

compound	measurement label	unit text	observed
CO/N=C1\CN(c2nc3c(cc2F)c(=O)c(C(=O)O)cn3-c2nc(N)c(F)cc2F)[C@H]1CN	MIC	µg/mL	4
CCO/N=C1\CN(c2nc3c(cc2F)c(=O)c(C(=O)O)cn3-c2nc(N)c(F)cc2F)[C@H]1CN	MIC	µg/mL	2
NC[C@H]1/C(=N/OCc2ccccc2)CN1c1nc2c(cc1F)c(=O)c(C(=O)O)cn2-c1nc(N)c(F)cc1F	MIC	µg/mL	2
Nc1nc(-n2cc(C(=O)O)c(=O)c3cc(F)c(N4CC/C(=N\OCc5ccccc5)C(N)C4)nc32)c(F)cc1F (stereo not given)	MIC	µg/mL	8
CO/N=C1\CN(c2c(F)cc3c(=O)c(C(=O)O)cn(-c4nc(N)c(F)cc4F)c3c2Cl)CC1CN (stereo not given)	MIC	µg/mL	0.03

====

// MIC lookup, one value per entry
Tested on: Pseudomonas aeruginosa
assay procedure: Antibacterial activity against Pseudomonas aeruginosa 14-15 after 18 to 24 hrs by CLSI M100-S11 method
Type: functional
measurement label: MIC (µg/mL)

compound	measurement label	unit text	observed
CO/N=C1\CN(c2nc3c(cc2F)c(=O)c(C(=O)O)cn3-c2nc(N)c(F)cc2F)[C@H]1CN	MIC	µg/mL	64
NC[C@@H]1/C(=N/OCc2ccccc2)CN1c1nc2c(cc1F)c(=O)c(C(=O)O)cn2-c1nc(N)c(F)cc1F	MIC	µg/mL	128
NC[C@H]1/C(=N/OCc2ccccc2)CN1c1nc2c(cc1F)c(=O)c(C(=O)O)cn2-c1nc(N)c(F)cc1F	MIC	µg/mL	128
CCO/N=C1\CN(c2nc3c(cc2F)c(=O)c(C(=O)O)cn3-c2nc(N)c(F)cc2F)CC1CN (stereo not drawn)	MIC	µg/mL	16
CCO/N=C1\CN(c2nc3c(cc2F)c(=O)c(C(=O)O)cn3-c2nc(N)c(F)cc2F)[C@H]1CN	MIC	µg/mL	64
CCO/N=C1\CN(c2nc3c(cc2F)c(=O)c(C(=O)O)cn3-c2nc(N)c(F)cc2F)[C@@H]1CN	MIC	µg/mL	128
Nc1nc(-n2cc(C(=O)O)c(=O)c3cc(F)c(N4CC/C(=N\OCc5ccccc5)C(O)C4)nc32)c(F)cc1F (stereo not drawn)	MIC	µg/mL	128
CC1(CN)CN(c2nc3c(cc2F)c(=O)c(C(=O)O)cn3-c2nc(N)c(F)cc2F)C/C1=N\OCc1ccccc1 (stereo not drawn)	MIC	µg/mL	128
